system: MYB mRNA; assay: RT-qPCR splicing assay, MYB canonical (CJ) and alternative (AJ) junction mRNA; type: cell-based, human; conditions: Homo sapiens, Table 4B; gene panel; read-out: MYB (IC50, decrease in CJ mRNA levels)

{"columns": ["COMPOUND", "ASSAYED_TARGET", "IC50"],
 "data": [
  ["Cn1c(=O)oc2cc(-c3ccc(N4CCC(NC(C)(C)C)C4)nn3)c(O)cc21 (centres unmarked)", "MYB mRNA", "1 to 10 µM"],
  ["Cc1ccc2cc(-c3ccc(N4CCC(NC(C)(C)C)C4)nn3)c(O)cc2n1 (centres unmarked)", "MYB mRNA", "> 10 µM"],
  ["Cc1nc2cc(O)c(-c3ccc(N4CCC(NC(C)(C)C(C)C)C4)nn3)cc2o1 (centres unmarked)", "MYB mRNA", "1 to 10 µM"],
  ["Cc1nc2cc(O)c(-c3ccc(N4CC[C@@H](NC(C)(C)C(C)C)C4)nn3)cc2o1", "MYB mRNA", "0.1 to 1 µM"],
  ["CCC(C)(C)NC1CCN(c2ccc(-c3cc4oc(C)nc4cc3O)nn2)C1 (centres unmarked)", "MYB mRNA", "1 to 10 µM"],
  ["Cc1nc2cc(O)c(-c3ccc(N4CC[C@@H](NC(C)(C)C)C4)nn3)cc2o1", "MYB mRNA", "0.1 to 1 µM"],
  ["Cc1nc2cc(O)c(-c3ccc(N4CC[C@@H](N(C)C(C)(C)C)C4)nn3)cc2o1", "MYB mRNA", "1 to 10 µM"],
  ["Cc1nc2cc(O)c(-c3ccc(N4CC[C@H](N(C)C(C)(C)C)C4)nn3)cc2o1", "MYB mRNA", "0.1 to 1 µM"],
  ["Cc1nc2cc(O)c(-c3ccc(N4CCC(NC(C)(C)C(C)(C)C)C4)nn3)cc2o1 (centres unmarked)", "MYB mRNA", "0.1 to 1 µM"],
  ["Cc1nc2cc(O)c(-c3cnc(N4CC[C@H](NC(C)(C)C)C4)nn3)cc2o1", "MYB mRNA", "1 to 10 µM"],
  ["Cc1nc2c(F)c(O)c(-c3ccc(N4CC[C@H](NC(C)(C)C)C4)nn3)cc2o1", "MYB mRNA", "> 10 µM"],
  ["Cc1nc2cc(O)c(-c3ccc(N4CCC(NC5CCC5)C4)nn3)cc2o1 (centres unmarked)", "MYB mRNA", "> 10 µM"],
  ["Cc1nc2cc(O)c(-c3cnc(N4CC[C@@H](NC(C)(C)C)C4)nn3)cc2o1", "MYB mRNA", "> 10 µM"],
  ["Cc1nc2cc(O)c(-c3ccc(N4CC[C@H](NC(C)(C)C(C)C)C4)nn3)cc2o1", "MYB mRNA", "0.1 to 1 µM"],
  ["CC(C)(C)NC1CCN(c2ccc(-c3cc4ccncc4cc3O)nn2)C1 (centres unmarked)", "MYB mRNA", "0.1 to 1 µM"],
  ["Cc1nc2cc(O)c(-c3cnc(N4C[C@@H](C)N[C@@H](C5CC5)C4)nn3)cc2o1", "MYB mRNA", "1 to 10 µM"],
  ["Cn1ccc2cc(O)c(-c3ccc(N4CC[C@H](NC(C)(C)C)C4)nn3)cc2c1=O", "MYB mRNA", "> 10 µM"]
]}

Origin of values: patent US20250333397A1
